# System: PPARg DBDmut IVT, anti-PPARg (DBD mutation: PPARg1 K132A/R137A, NR concentration 270 nM)
# measurement_description: PBM binding z-score (relative to random genomic background probes); higher = stronger binding; sequences stand for … in GC…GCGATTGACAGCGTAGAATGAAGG
value_type: PBM binding z-score
One number for each entry.

// known answers, use as guide
monomer_sequence=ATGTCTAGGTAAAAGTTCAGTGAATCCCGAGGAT value_type="PBM binding z-score" reported_measurement=0.765
monomer_sequence=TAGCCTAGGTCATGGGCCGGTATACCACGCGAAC value_type="PBM binding z-score" reported_measurement=-0.404
monomer_sequence=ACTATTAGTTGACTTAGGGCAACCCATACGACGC value_type="PBM binding z-score" reported_measurement=1.6
monomer_sequence=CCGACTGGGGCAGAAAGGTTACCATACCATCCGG value_type="PBM binding z-score" reported_measurement=-0.652
monomer_sequence=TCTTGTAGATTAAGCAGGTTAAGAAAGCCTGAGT value_type="PBM binding z-score" reported_measurement=0.04

Proceed to the following item.
Give its PBM binding z-score value. Item: "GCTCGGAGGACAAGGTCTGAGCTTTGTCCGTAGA"
-1.01
